Assay: Metabolic stability in rat liver microsomal fraction
Type: in vitro ADME
Settings: liver microsomes, 37° C., phase I cofactors
Description: Tested compounds were incubated in triplicates with rat liver microsomal fraction at 37° C. in the presence of metabolic phase I cofactors (NADP, G6P, G6P dehydrogenase, MgCl2) necessary for metabolic transformations. Concentration of a non-metabolized tested compound in the reaction mixture was measured using LC/MS method at 4 time points: after 0, 20, 40 and 60 min of incubation. The AUC of compounds at those time points were compared with AUC at point 0 to obtain % loss of parental compound. […]
// values below are reported half-life
Please state the figure in h; there is no need to write the unit.

Please review the entries below; each comes with its answer.
>  <compound>
Cc1ncc(C)n2nc(-c3ccn4cc(-c5ccccc5)nc4c3)nc12 [Ex. 1 of WO2013003298, reference compound]

>  <unit info>
h

>  <quantitative result>
0.559

$$$$
>  <compound>
Cc1ncc(C)n2nc(-c3ccc4[nH]c(-c5ccccc5)nc4c3)nc12

>  <unit info>
h

>  <quantitative result>
1.05

$$$$

For the compound `Cc1ncc(C)n2nc(-c3ccn4cc(-c5ccccc5)nc4n3)nc12` , what half-life is on record? 1.1

----------
target: Recombinant human phosphodiesterase 10A (PDE10A) (Homo sapiens (Human)); assay: Assay of phosphodiesterase 10 inhibition in vitro (PDE-Glo luminescent method); details: averaged IC50 values, read-out: hPDE10A1 IC50
# Yes = IC50 below 50 nM (exclusive); No = IC50 at/above 50 nM

Some solved entries appear below for comparison.
>  <compound>
Cc1ncc(C)n2nc(-c3ccc4[nH]c(-c5nccs5)nc4c3)nc12

>  <group label>
No

$$$$
>  <compound>
Cc1ncc(C)n2nc(-c3ccc4[nH]c(-c5ccc(F)cc5)nc4c3)nc12

>  <group label>
No

$$$$
>  <compound>
Cc1ncc(C)n2nc(-c3ccc4[nH]c(-c5ccccc5)nc4c3)nc12

>  <group label>
Yes

$$$$

Does Cc1cc(C)n2nc(-c3ccc4c(c3)nc(-c3ccccc3)n4C)nc2n1 [Example 48A] have IC50 strictly under 50 nM? No

Same again, this time with Cc1cc(C)n2nc(-c3ccc4nc(-c5ccccc5)n(C)c4c3)nc2n1 [Example 48B] No

// next record `Cc1ncc(C)n2nc(-c3ccc4[nH]c(-c5ccccn5)nc4c3)nc12` No

Also `Cc1cc(C)n2nc(-c3ccc4[nH]c(-c5ccccn5)nc4c3)nc2n1` , if possible. No

Repeat with `Cc1ncc(C)n2nc(-c3ccc4[nH]c(-c5ccccc5F)nc4c3)nc12` Yes

Entry `Cc1ncc(C)n2nc(-c3ccn4cc(-c5ccccc5)nc4n3)nc12` please Yes

----------
target: Recombinant human phosphodiesterase 10A (PDE10A) (Homo sapiens (Human), UniProt Q9Y233); experiment: Assay of phosphodiesterase 10 inhibition in vitro (PDE-Glo luminescent method); conditions: averaged IC50 values, read-out: hPDE10A1 IC50
Sequence (Q9Y233 267-1055): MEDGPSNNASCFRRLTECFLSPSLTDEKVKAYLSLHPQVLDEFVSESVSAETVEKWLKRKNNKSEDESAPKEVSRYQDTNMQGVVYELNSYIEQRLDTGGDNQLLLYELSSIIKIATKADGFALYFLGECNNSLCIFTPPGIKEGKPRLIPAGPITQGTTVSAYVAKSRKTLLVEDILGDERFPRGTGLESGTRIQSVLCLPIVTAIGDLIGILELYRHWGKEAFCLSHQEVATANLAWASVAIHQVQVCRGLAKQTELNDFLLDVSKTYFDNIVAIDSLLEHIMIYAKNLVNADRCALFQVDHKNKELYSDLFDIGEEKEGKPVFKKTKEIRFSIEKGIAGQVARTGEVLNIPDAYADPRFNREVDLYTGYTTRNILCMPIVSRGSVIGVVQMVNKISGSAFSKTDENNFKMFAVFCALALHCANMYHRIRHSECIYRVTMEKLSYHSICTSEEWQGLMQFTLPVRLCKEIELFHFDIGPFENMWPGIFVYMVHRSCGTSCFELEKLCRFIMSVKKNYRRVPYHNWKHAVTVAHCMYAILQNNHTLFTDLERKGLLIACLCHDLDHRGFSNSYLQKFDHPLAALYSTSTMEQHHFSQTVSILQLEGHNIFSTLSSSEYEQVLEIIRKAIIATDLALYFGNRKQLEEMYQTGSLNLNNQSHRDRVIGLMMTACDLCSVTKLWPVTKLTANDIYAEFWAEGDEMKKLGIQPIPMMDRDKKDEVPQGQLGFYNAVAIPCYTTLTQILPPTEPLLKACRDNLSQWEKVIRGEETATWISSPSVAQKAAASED
measured parameter: pIC50
Convention used: pIC50 is expressed as -log10 of the molar concentration.

>  <chemical string>
Cc1cc(C)n2nc(-c3ccc4[nH]c(-c5ccccc5)nc4c3)nc2n1

>  <target under test>
Recombinant human phosphodiesterase 10A (PDE10A) (Homo sapiens (Human), UniProt Q9Y233)

>  <pIC50>
7.33

$$$$
>  <chemical string>
COc1ccccc1-c1nc2cc(-c3nc4c(C)ncc(C)n4n3)ccc2[nH]1

>  <target under test>
Recombinant human phosphodiesterase 10A (PDE10A) (Homo sapiens (Human), UniProt Q9Y233)

>  <pIC50>
7.71

$$$$
>  <chemical string>
Cc1cc(C)n2nc(-c3ccc4[nH]c(-c5ccncc5)nc4c3)nc2n1

>  <target under test>
Recombinant human phosphodiesterase 10A (PDE10A) (Homo sapiens (Human), UniProt Q9Y233)

>  <pIC50>
6.02

$$$$
>  <chemical string>
Cc1cc(C)n2nc(-c3ccn4cc(-c5ccccc5)nc4n3)nc2n1

>  <target under test>
Recombinant human phosphodiesterase 10A (PDE10A) (Homo sapiens (Human), UniProt Q9Y233)

>  <pIC50>
7.02

$$$$

Consider the additional molecule presented here.
Under Recombinant human phosphodiesterase 10A (PDE10A) (Homo sapiens (Human), UniProt Q9Y233): pIC50 value of `Cc1ncc(C)n2nc(-c3ccc4[nH]c(-c5cccc(F)c5)nc4c3)nc12` ? 6.76
